assay: AUC (0 to 12 hrs) in HIV-infected Thai pregnant women at 100 mg, po bid initiated intrapartum in combination with 400 mg, po bid Lopinavir measured within 72 hrs postpartum; format: ADME, organism-based; set-up: time < 12 hr, dose 100 mg, route oral; details: female, human, plasma
assay-endpoint: AUC at 12 h (ng·h/mL)
Field: numeric (ng·h/mL). Do not append units.

Request: Using known records, supply AUC at 12 h for CC(C)c1nc(CN(C)C(=O)N[C@H](C(=O)N[C@@H](Cc2ccccc2)C[C@H](O)[C@H](Cc2ccccc2)NC(=O)OCc2cncs2)C(C)C)cs1
Response: 4270
